Molecular target: Delta-type opioid receptor (Rattus norvegicus) (UniProt P33533)
Sequence (P33533 whole entry): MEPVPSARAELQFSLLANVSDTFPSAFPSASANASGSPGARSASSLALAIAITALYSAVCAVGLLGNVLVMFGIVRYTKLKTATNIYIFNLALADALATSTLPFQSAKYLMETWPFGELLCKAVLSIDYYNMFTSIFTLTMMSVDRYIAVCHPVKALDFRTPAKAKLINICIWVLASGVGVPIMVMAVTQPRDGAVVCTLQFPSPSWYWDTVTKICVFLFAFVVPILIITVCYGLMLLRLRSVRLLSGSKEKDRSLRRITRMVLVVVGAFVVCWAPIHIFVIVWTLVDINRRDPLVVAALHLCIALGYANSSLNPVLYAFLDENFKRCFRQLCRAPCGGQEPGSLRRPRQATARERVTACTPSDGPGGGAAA
Assay: Agonist activity at rat delta opioid receptor expressed in rat C6 cells assessed as stimulation of [35S]GTPgammaS binding at 10 uM after 1 hr by liquid scintillation counting relative to SNC80
Type: functional, cell-based
Numbered stars: 1 amine (or outer) side, 2 acyl side, 3 side chain; on linkers, the order of the positions; unused ones are H or OH. Bridge positions count the residues as written; N and C are the ends. Square brackets hold non-standard residues; d marks the D form. Peptide text beside a SMILES is read from it. 1Nal = N[C@@H](Cc1cccc2ccccc12)C(=O)O; 2Nal = N[C@@H](Cc1ccc2ccccc2c1)C(=O)O; CH2 = C([*:1])[*:2]
MEASUREMENT KIND: Efficacy (%)
State just the number; it will be interpreted in %.

{"COMPOUND": "NC(=O)[C@@H]1CSSC[C@@H](NC(=O)[C@@H](N)Cc2ccc(O)cc2)C(=O)N[C@@H](Cc2ccccc2)C(=O)N[C@@H](Cc2cccc3ccccc23)C(=O)N1 (H-Y[dC]F[1Nal]C-NH2; disulfide 2-5)", "Efficacy / %": 15}
{"COMPOUND": "NC(=O)[C@@H]1CSSC[C@@H](NC(=O)[C@@H](N)Cc2ccc(O)cc2)C(=O)N[C@@H](Cc2ccccc2)C(=O)N[C@@H](Cc2ccc3ccccc3c2)C(=O)N1 (H-Y[dC]F[2Nal]C-NH2; disulfide 2-5)", "Efficacy / %": 2}
{"COMPOUND": "NC(=O)[C@@H]1CSCSC[C@@H](NC(=O)[C@@H](N)Cc2ccc(O)cc2)C(=O)N[C@@H](Cc2ccccc2)C(=O)N[C@@H](Cc2cccc3ccccc23)C(=O)N1 (H-Y[dC]F[1Nal]C-NH2; linker 2-5 via CH2)", "Efficacy / %": 22}

# Efficacy lookup, item NC(=O)[C@@H]1CSCSC[C@@H](NC(=O)[C@@H](N)Cc2ccc(O)cc2)C(=O)N[C@@H](Cc2cccc3ccccc23)C(=O)N[C@@H](Cc2ccccc2)C(=O)N1 (H-Y[dC][1Nal]FC-NH2; linker 2-5 via CH2)
23

Would you mind telling me what Efficacy value was observed for NC(=O)[C@@H]1CSCSC[C@@H](NC(=O)[C@@H](N)Cc2ccc(O)cc2)C(=O)N[C@@H](Cc2ccccc2)C(=O)N[C@@H](Cc2ccc3ccccc3c2)C(=O)N1 (H-Y[dC]F[2Nal]C-NH2; linker 2-5 via CH2) ?
7

So what's the measured Efficacy for this one? NC(=O)[C@@H]1CSSC[C@@H](NC(=O)[C@@H](N)Cc2ccc(O)cc2)C(=O)N[C@@H](Cc2ccc3ccccc3c2)C(=O)N[C@@H](Cc2ccccc2)C(=O)N1 (H-Y[dC][2Nal]FC-NH2; disulfide 2-5)
0.7

Reported Efficacy for NC(=O)[C@@H]1CSSC[C@@H](NC(=O)[C@@H](N)Cc2ccc(O)cc2)C(=O)N[C@@H](Cc2cccc3ccccc23)C(=O)N[C@@H](Cc2ccccc2)C(=O)N1 (H-Y[dC][1Nal]FC-NH2; disulfide 2-5) : what is it?
0

Returns the measured Efficacy for the input compound. Input: NC(=O)[C@@H]1CSCSC[C@@H](NC(=O)[C@@H](N)Cc2ccc(O)cc2)C(=O)N[C@@H](Cc2ccc3ccccc3c2)C(=O)N[C@@H](Cc2ccccc2)C(=O)N1 (H-Y[dC][2Nal]FC-NH2; linker 2-5 via CH2)
23
